Overview of recorded growth inhibition for various compounds
- Protocol Summary: NCI Yeast Anticancer Drug Screen. Data for the mlh1 rad18 strain (AID 175)
- Test Parameters: S. cerevisiae mlh1 rad18 strain growth inhibition; at 50.0 µM; active compounds read high
This is part of a sample that, as a whole, favours compounds with a hit. Of some 79,000 tested, about 15% had one in any assay.
Give the quantity in %, number only.

// below: answered compounds
Compound	growth inhibition (%)
CC(=O)C1CCC2C3CC=C4CC(OOS(=O)c5ccc(C)cc5)CCC4(C)C3CCC12C (stereo not drawn)	24.1
CCOP(=O)(OCC)/C(C#N)=C/c1cnc[nH]1	-54.5
NC(=O)NC(O)C(Cl)(Cl)Cl (stereo not drawn)	-29.4
CCCC1(C(C)C)C(=O)NC(=S)NC1=O	-24.1
CCC(OC(=O)C1C(C=C(C)C)C1(C)C)c1cc2c(cc1Cl)OCO2 (stereo not drawn)	-20.8

Challenge: Item "CC(C)=C=CP(=O)(O)c1ccccc1" has what recorded growth inhibition?
Response given: 4.45
